B1: TPR t1 (parent)
chain: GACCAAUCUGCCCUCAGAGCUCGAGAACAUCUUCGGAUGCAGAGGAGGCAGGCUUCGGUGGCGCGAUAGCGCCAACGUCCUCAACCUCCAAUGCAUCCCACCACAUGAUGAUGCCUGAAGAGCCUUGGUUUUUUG

variants of: B1; assay: polymerase ribozyme fitness, log enrichment relative to wild type (log ratio); higher = more active; in vitro selection for triplet polymerase activity
Entries annotated with measured polymerase ribozyme fitness (log ratio)

[
  {
    "Variant code": "C31U C49A C123U C124U",
    "polymerase ribozyme fitness (log ratio)": -4.12
  },
  {
    "Variant code": "C56A G71C",
    "polymerase ribozyme fitness (log ratio)": -4.4
  },
  {
    "Variant code": "C53G",
    "polymerase ribozyme fitness (log ratio)": -0.355
  },
  {
    "Variant code": "A66C G113C",
    "polymerase ribozyme fitness (log ratio)": -3.98
  },
  {
    "Variant code": "A18U A68G U81A C123U",
    "polymerase ribozyme fitness (log ratio)": -5.83
  },
  {
    "Variant code": "U7C G113A",
    "polymerase ribozyme fitness (log ratio)": 0.595
  },
  {
    "Variant code": "G71U A103C",
    "polymerase ribozyme fitness (log ratio)": -5.76
  },
  {
    "Variant code": "C40G C114G",
    "polymerase ribozyme fitness (log ratio)": -4.17
  },
  {
    "Variant code": "G39A G44A G77A",
    "polymerase ribozyme fitness (log ratio)": -2.46
  },
  {
    "Variant code": "C12G G65A",
    "polymerase ribozyme fitness (log ratio)": -3.6
  },
  {
    "Variant code": "C53U G63C",
    "polymerase ribozyme fitness (log ratio)": -2.11
  },
  {
    "Variant code": "G39U A111C C124A",
    "polymerase ribozyme fitness (log ratio)": 0.34
  },
  {
    "Variant code": "U14G G36U G42C G61A G113A U132A",
    "polymerase ribozyme fitness (log ratio)": -5.95
  },
  {
    "Variant code": "A2C G47C C123G",
    "polymerase ribozyme fitness (log ratio)": -2.2
  },
  {
    "Variant code": "G117U A118U U130C",
    "polymerase ribozyme fitness (log ratio)": -3.28
  },
  {
    "Variant code": "A2G G51A C73G",
    "polymerase ribozyme fitness (log ratio)": -2.89
  },
  {
    "Variant code": "C34G A111G U129G",
    "polymerase ribozyme fitness (log ratio)": -6.92
  },
  {
    "Variant code": "A37U G52A C56A G110C A118U",
    "polymerase ribozyme fitness (log ratio)": -5.47
  },
  {
    "Variant code": "C13G G63C C85G U112A G120C",
    "polymerase ribozyme fitness (log ratio)": -1.45
  },
  {
    "Variant code": "C34G A90C U112G",
    "polymerase ribozyme fitness (log ratio)": -6.02
  },
  {
    "Variant code": "G39U C62U C99U",
    "polymerase ribozyme fitness (log ratio)": -5.08
  },
  {
    "Variant code": "U87A C89U C123A C124G",
    "polymerase ribozyme fitness (log ratio)": 1.56
  },
  {
    "Variant code": "U9C C72U U78C A83U A90G A121G",
    "polymerase ribozyme fitness (log ratio)": 2.19
  },
  {
    "Variant code": "G19C G52A C88A U112G C114A",
    "polymerase ribozyme fitness (log ratio)": -6.11
  },
  {
    "Variant code": "A6C C53G",
    "polymerase ribozyme fitness (log ratio)": -0.863
  },
  {
    "Variant code": "C49G U112C G113A",
    "polymerase ribozyme fitness (log ratio)": -2.11
  },
  {
    "Variant code": "U32C C56U",
    "polymerase ribozyme fitness (log ratio)": 0.1
  },
  {
    "Variant code": "C15A A66G U81C",
    "polymerase ribozyme fitness (log ratio)": -4.15
  },
  {
    "Variant code": "G69C U116C G120C",
    "polymerase ribozyme fitness (log ratio)": -0.894
  },
  {
    "Variant code": "U109C U132A",
    "polymerase ribozyme fitness (log ratio)": -4.52
  },
  {
    "Variant code": "C34G G69U C123A",
    "polymerase ribozyme fitness (log ratio)": -2.45
  },
  {
    "Variant code": "U21A C56G C73A C99G G120A U131C",
    "polymerase ribozyme fitness (log ratio)": -7.97
  },
  {
    "Variant code": "C12G C40G",
    "polymerase ribozyme fitness (log ratio)": -1.2
  },
  {
    "Variant code": "A50C G71U C101G",
    "polymerase ribozyme fitness (log ratio)": -2.67
  },
  {
    "Variant code": "G45A C115G G127C",
    "polymerase ribozyme fitness (log ratio)": -4.31
  },
  {
    "Variant code": "G110A G113A",
    "polymerase ribozyme fitness (log ratio)": -3.95
  },
  {
    "Variant code": "U14A C34G G71C A91G C124A",
    "polymerase ribozyme fitness (log ratio)": -6.51
  },
  {
    "Variant code": "A91C C123A U133G",
    "polymerase ribozyme fitness (log ratio)": -1.07
  },
  {
    "Variant code": "U9A A74G C104A C123A",
    "polymerase ribozyme fitness (log ratio)": -0.249
  },
  {
    "Variant code": "A27C C76A",
    "polymerase ribozyme fitness (log ratio)": -5.92
  },
  {
    "Variant code": "C12U A74U C80A C97U A121G U133A",
    "polymerase ribozyme fitness (log ratio)": -0.836
  },
  {
    "Variant code": "C8A U30C G69U A118U G120A U129G",
    "polymerase ribozyme fitness (log ratio)": -1.47
  },
  {
    "Variant code": "C73A C102G",
    "polymerase ribozyme fitness (log ratio)": -5.02
  },
  {
    "Variant code": "C4A C13U G63C U81A",
    "polymerase ribozyme fitness (log ratio)": -2.72
  },
  {
    "Variant code": "G35C G39U",
    "polymerase ribozyme fitness (log ratio)": -5.8
  },
  {
    "Variant code": "C73U C114G",
    "polymerase ribozyme fitness (log ratio)": -1.76
  },
  {
    "Variant code": "U9G C34A",
    "polymerase ribozyme fitness (log ratio)": -1.59
  },
  {
    "Variant code": "C73U C82A C124G",
    "polymerase ribozyme fitness (log ratio)": 1.47
  },
  {
    "Variant code": "A6C C11G G36U C40G U106A U130A",
    "polymerase ribozyme fitness (log ratio)": -4.89
  },
  {
    "Variant code": "A41U C56A",
    "polymerase ribozyme fitness (log ratio)": -1.52
  },
  {
    "Variant code": "G107C G110A G117A U130C",
    "polymerase ribozyme fitness (log ratio)": -6.86
  },
  {
    "Variant code": "A18C A37G G110C",
    "polymerase ribozyme fitness (log ratio)": -6.11
  },
  {
    "Variant code": "C56U C88A G127C",
    "polymerase ribozyme fitness (log ratio)": -1.72
  },
  {
    "Variant code": "C8U A43C C94U U130A",
    "polymerase ribozyme fitness (log ratio)": -2.21
  },
  {
    "Variant code": "C13G G36C C40U",
    "polymerase ribozyme fitness (log ratio)": -2.55
  },
  {
    "Variant code": "A37G C56U C102A",
    "polymerase ribozyme fitness (log ratio)": -1.87
  },
  {
    "Variant code": "G47U C49U C62U",
    "polymerase ribozyme fitness (log ratio)": -4.79
  },
  {
    "Variant code": "G61A G117U",
    "polymerase ribozyme fitness (log ratio)": -2.02
  },
  {
    "Variant code": "G107A U130C",
    "polymerase ribozyme fitness (log ratio)": -4.85
  },
  {
    "Variant code": "U9G C11A G52A G57C U116G A121G",
    "polymerase ribozyme fitness (log ratio)": 0.971
  },
  {
    "Variant code": "C31U C88G",
    "polymerase ribozyme fitness (log ratio)": -6.51
  },
  {
    "Variant code": "C53A A105U",
    "polymerase ribozyme fitness (log ratio)": -2.72
  },
  {
    "Variant code": "A46U G48U U112G G135C",
    "polymerase ribozyme fitness (log ratio)": -3.81
  },
  {
    "Variant code": "G17A A46C",
    "polymerase ribozyme fitness (log ratio)": -3.18
  },
  {
    "Variant code": "C34U G52U G69C C79G A100G C114U",
    "polymerase ribozyme fitness (log ratio)": -5.24
  },
  {
    "Variant code": "A43U U112C A119U",
    "polymerase ribozyme fitness (log ratio)": -0.989
  },
  {
    "Variant code": "C11G C20U G63A",
    "polymerase ribozyme fitness (log ratio)": -2.21
  },
  {
    "Variant code": "U96A U125G",
    "polymerase ribozyme fitness (log ratio)": -1.93
  },
  {
    "Variant code": "G42C A43G A84C C114A",
    "polymerase ribozyme fitness (log ratio)": -2
  },
  {
    "Variant code": "U9G C12G C28G C40A C85A A90C C104A G110C",
    "polymerase ribozyme fitness (log ratio)": -4.42
  },
  {
    "Variant code": "U55C C72G A83G U126A",
    "polymerase ribozyme fitness (log ratio)": -2.13
  },
  {
    "Variant code": "C15G C56G U87G U112G G113A C123G G135A",
    "polymerase ribozyme fitness (log ratio)": -3.08
  },
  {
    "Variant code": "U7G A16C G42A",
    "polymerase ribozyme fitness (log ratio)": -4.17
  },
  {
    "Variant code": "G60U U132A",
    "polymerase ribozyme fitness (log ratio)": -0.036
  },
  {
    "Variant code": "C49U U59A U78C A84G",
    "polymerase ribozyme fitness (log ratio)": -1.51
  },
  {
    "Variant code": "A50C G110A",
    "polymerase ribozyme fitness (log ratio)": -2.37
  },
  {
    "Variant code": "C13G C62G A66U G113U",
    "polymerase ribozyme fitness (log ratio)": -7.31
  },
  {
    "Variant code": "G110U C123U",
    "polymerase ribozyme fitness (log ratio)": -1.39
  },
  {
    "Variant code": "A16G G47C C56U A74U A121G G128C",
    "polymerase ribozyme fitness (log ratio)": -3.74
  },
  {
    "Variant code": "C22U A27U G45C U54G C56G G63C A121U",
    "polymerase ribozyme fitness (log ratio)": -5.28
  },
  {
    "Variant code": "C12U A100U",
    "polymerase ribozyme fitness (log ratio)": -0.242
  },
  {
    "Variant code": "C49G C56A",
    "polymerase ribozyme fitness (log ratio)": -2.63
  },
  {
    "Variant code": "A5U C13G C49A G63U U81G A121C",
    "polymerase ribozyme fitness (log ratio)": -3.63
  },
  {
    "Variant code": "G25U C34G G36C C97A U112G",
    "polymerase ribozyme fitness (log ratio)": -6.79
  },
  {
    "Variant code": "C49A C102G C114U C115G",
    "polymerase ribozyme fitness (log ratio)": -6.27
  },
  {
    "Variant code": "C56A G61A A111G U125C",
    "polymerase ribozyme fitness (log ratio)": -2.99
  },
  {
    "Variant code": "A50U A91C",
    "polymerase ribozyme fitness (log ratio)": -3.23
  },
  {
    "Variant code": "U7G U54A C102A U112A U131A",
    "polymerase ribozyme fitness (log ratio)": -0.106
  },
  {
    "Variant code": "A18G C70U A95U C124A",
    "polymerase ribozyme fitness (log ratio)": -4.13
  },
  {
    "Variant code": "C8A G19U",
    "polymerase ribozyme fitness (log ratio)": -2.62
  },
  {
    "Variant code": "G58U G71A G77A",
    "polymerase ribozyme fitness (log ratio)": 0.0877
  }
]
